Values from PubChem BioAssay (NCATS)

# ASSAY_PROTOCOL: Quantitative High-Throughput drug screen in 47 multiple myeloma cell lines against the NCATS MIPE library collection: EJM_DSMZ cell viability assay (AID 1918926; note: nearly all actives have a fitted effect of over 30% in size)
# CONDITION_LABEL: EJM myeloma cell viability, CellTiter-Glo ATP, 48 h; series mostly up to 45.8 µM
Inconclusive results are not listed. Active and inactive are the calls of the source. Calls come from the whole dose curve; as a rule, active = well fitted cell-killing curve with a large enough effect; inconclusive = small, poorly fitted or top-dose-only effect, or effect the other way; inactive = no such curve, though single readings can be large or run the other way.
Classes used: T for active, F for inactive

>  <COMPOUND>
O=c1c(-c2ccc(O)cc2)coc2cc(O)ccc12

>  <LABEL_CLASS>
F

$$$$
>  <COMPOUND>
O=C1c2c(O)cc(O)cc2O[C@H](c2cc(O)c(O)c(O)c2)[C@H]1O

>  <LABEL_CLASS>
T

$$$$
>  <COMPOUND>
O=C1C[C@@H](c2ccc(O)cc2)Oc2cc(O)cc(O)c21

>  <LABEL_CLASS>
F

$$$$
>  <COMPOUND>
O=c1[nH]cnc2c1ncn2[C@H]1CC[C@@H](CO)O1

>  <LABEL_CLASS>
F

$$$$
>  <COMPOUND>
O=C1NC(=O)C(=Cc2cccc(C(F)(F)F)c2)S1

>  <LABEL_CLASS>
T

$$$$
>  <COMPOUND>
COc1cc2ncnc(-n3nc(-c4ccccn4)nc3N)c2cc1OC

>  <LABEL_CLASS>
T

$$$$
>  <COMPOUND>
COc1cc(O)c2c(c1)C(=O)c1cc(C)cc(O)c1C2=O

>  <LABEL_CLASS>
F

$$$$
>  <COMPOUND>
C[C@H](NC(=O)C(=O)Nc1ccccc1C(C)(C)C)C(=O)N[C@@H](CC(=O)O)C(=O)COc1c(F)c(F)cc(F)c1F

>  <LABEL_CLASS>
F

$$$$
>  <COMPOUND>
CCOC(=O)C1=C(N)Oc2ccc(Br)cc2C1C(C#N)C(=O)OCC (stereo unspecified)

>  <LABEL_CLASS>
T

$$$$
>  <COMPOUND>
O=C(Nc1c(Cl)cncc1Cl)c1ccc(OC(F)F)c(OCC2CC2)c1

>  <LABEL_CLASS>
F

$$$$
>  <COMPOUND>
COC[C@@H](c1ccc(C(F)(F)F)cc1)N1CCN(C2(C)CCN(C(=O)c3c(C)ncnc3C)CC2)C[C@H]1C

>  <LABEL_CLASS>
F

$$$$
